Just for reference, the supplement of paper PMC6897291 is where these values come from.

# Test system: RIVA
# assayProcedure: growth inhibition by drug plus 177Lu-lilotomab satetraxetan (1 - RLU/untreated control) (fraction); higher = stronger inhibition
# measurementContext: 10 nM; time (day): 4; 177Lu-lilotomab satetraxetan 0.5 ug/ml
Short version: growth inhibition by drug plus 177Lu-lilotomab satetraxetan at least 0.6 is true, less is false.

Consider the worked cases shown below.
| molecularString | assignedCategory |
| --- | --- |
| C[C@@H](Oc1cc(-n2cnc3ccc(CN4CCN(C)CC4)cc32)sc1C(N)=O)c1ccccc1C(F)(F)F | true |
| CS(=O)(=O)N1CCN(Cc2cc3nc(-c4cccc5[nH]ncc45)nc(N4CCOCC4)c3s2)CC1 | false |
| Nc1nc(F)nc2c1ncn2[C@@H]1O[C@H](CO)[C@@H](O)[C@@H]1O | false |
| NC(=O)c1ccc(-c2nc(-c3ccccn3)c(-c3ccc4c(c3)OCO4)[nH]2)cc1 | true |

In: In plain terms: is recorded growth inhibition by drug plus 177Lu-lilotomab satetraxetan at least 0.6 for "O=C(Nc1ncc([N+](=O)[O-])s1)c1ccc([N+](=O)[O-])c(Cl)c1" ?
Out: true

In: In plain terms: is recorded growth inhibition by drug plus 177Lu-lilotomab satetraxetan at least 0.6 for "C[C@]1(O)C[C@@H](c2nc(-c3ccc4ccc(-c5ccccc5)nc4c3)c3c(N)nccn32)C1" ?
Out: false
